Some molecules, each annotated with its measured IC50.
Target: Avi-KRAS G12V (1-169) GppNHp/RAF1 RBD-3xFLAG (52-151) (Homo sapiens, UniProt P01116, G12V)
Construct: Avi-KRAS G12V (1-169)
Sequence (P01116 1-169 isoform P01116-2 G12V): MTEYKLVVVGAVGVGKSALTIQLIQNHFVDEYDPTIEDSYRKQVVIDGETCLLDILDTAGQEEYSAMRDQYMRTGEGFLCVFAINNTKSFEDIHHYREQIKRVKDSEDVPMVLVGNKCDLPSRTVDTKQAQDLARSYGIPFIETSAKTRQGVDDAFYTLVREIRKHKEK
Assay: Raf1-KRAS G12V-GppNHP disruption HTRF assay (Biological Example 1)
Type: binding
Settings: KRAS G12V-GppNHp/RAF1 RBD HTRF

{"molecule": "C[C@@H]1[C@H](N(C)c2nc(OC[C@@]34CCCN3C[C@H](F)C4)nc3c(F)c(-c4ccc(F)c5sc(N)c(C#N)c45)c(C(F)(F)F)cc23)CCN1C(=O)C(C)(F)F", "IC50": "100 to 1000 nM"}
{"molecule": "CC(=O)NCCN(C)c1nc(OC[C@@]23CCCN2C[C@H](F)C3)nc2c(F)c(-c3ccc(F)c4sc(N)c(C#N)c34)c(C(F)(F)F)cc12", "IC50": "100 to 1000 nM"}
{"molecule": "CCN(c1nc(OC[C@@]23CCCN2C[C@H](F)C3)nc2c(F)c(-c3ccc(F)c4sc(N)c(C#N)c34)c(C(F)(F)F)cc12)[C@@H]1CCS(=O)(=O)C1", "IC50": "100 to 1000 nM"}
{"molecule": "C[C@@H]1CC[C@@H](O)CN1c1nc(OC[C@@]23CCCN2C[C@H](F)C3)nc2c(F)c(-c3ccc(F)c4sc(N)c(C#N)c34)c(C(F)(F)F)cc12", "IC50": "100 to 1000 nM"}
{"molecule": "C[C@@H]1[C@H](N(C)c2nc(OC[C@@]34CCCN3C[C@H](F)C4)nc3c(F)c(-c4ccc(F)c5sc(N)c(C#N)c45)c(C(F)(F)F)cc23)CCN1C(=O)C1CC1 (atropisomer, axis not shown) [Compound 334]", "IC50": "> 10000 nM"}
{"molecule": "CC(=O)N1CC[C@@](C)(N(C)c2nc(OC[C@@]34CCCN3C[C@H](F)C4)nc3c(F)c(-c4ccc(F)c5sc(N)c(C#N)c45)c(C(F)(F)F)cc23)[C@H]1C", "IC50": "1000 to 10000 nM"}
{"molecule": "CCN(c1nc(OC[C@@]23CCCN2C[C@H](F)C3)nc2c(F)c(-c3ccc(F)c4sc(N)c(C#N)c34)c(C(F)(F)F)cc12)[C@@H]1C[C@H](C)N(C(=O)N(C)C)C1 (atropisomer, axis not shown)", "IC50": "1000 to 10000 nM"}
{"molecule": "N#Cc1c(N)sc2c(F)ccc(-c3c(C(F)(F)F)cc4c(N5CCN6C(=O)OCC6C5)nc(OCC56CCCN5CC(F)C6)nc4c3F)c12 (centres unmarked) [Compound 428]", "IC50": "1000 to 10000 nM"}
{"molecule": "C[C@H]1CN(c2nc(OC[C@@]34CCCN3C[C@H](F)C4)nc3c(F)c(-c4ccc(F)c5sc(N)c(C#N)c45)c(C(F)(F)F)cc23)Cc2cc(C(=O)N(C)C)nn21", "IC50": "100 to 1000 nM"}
{"molecule": "CCN(c1nc(OC[C@@]23CCCN2C[C@H](F)C3)nc2c(F)c(-c3ccc(F)c4sc(N)c(C#N)c34)c(C(F)(F)F)cc12)[C@H]1CC(=O)N(C)C1", "IC50": "100 to 1000 nM"}
{"molecule": "CCN(c1nc(OC[C@@]23CCCN2C[C@H](F)C3)nc2c(F)c(-c3ccc(F)c4sc(N)c(C#N)c34)c(C(F)(F)F)cc12)[C@H]1CCN(C(=O)OC)C1 [Compound 394]", "IC50": "< 100 nM"}
{"molecule": "CCN(c1nc(OC[C@@]23CCCN2C[C@H](F)C3)nc2c(F)c(-c3ccc(F)c4sc(N)c(C#N)c34)c(C(F)(F)F)cc12)[C@@H]1CCN(C(=O)OC)C1", "IC50": "100 to 1000 nM"}
{"molecule": "CCC(=O)N1CC[C@@H](N(C)c2nc(OC[C@@]34CCCN3C[C@H](F)C4)nc3c(F)c(-c4ccc(F)c5sc(N)c(C#N)c45)c(C(F)(F)F)cc23)[C@@H]1C", "IC50": "1000 to 10000 nM"}
{"molecule": "CN(C)C(=O)c1cc2n(n1)CCN(c1nc(OC[C@@]34CCCN3C[C@H](F)C4)nc3c(F)c(-c4ccc(F)c5sc(N)c(C#N)c45)c(C(F)(F)F)cc13)CC2", "IC50": "1000 to 10000 nM"}
{"molecule": "CCN(c1nc(OC[C@@]23CCCN2C[C@H](F)C3)nc2c(F)c(-c3ccc(F)c4sc(N)c(C#N)c34)c(C(F)(F)F)cc12)[C@@H]1CC(=O)N(C)C1", "IC50": "100 to 1000 nM"}
{"molecule": "CCN(c1nc(OC[C@@]23CCCN2C[C@H](F)C3)nc2c(F)c(-c3ccc(F)c4sc(N)c(C#N)c34)c(C(F)(F)F)cc12)[C@H]1CCN(C(=O)C2(F)CC2)C1 (atropisomer, axis not shown)", "IC50": "< 100 nM"}
{"molecule": "CC(C)C(=O)N1CC[C@](C)(N(C)c2nc(OC[C@@]34CCCN3C[C@H](F)C4)nc3c(F)c(-c4ccc(F)c5sc(N)c(C#N)c45)c(C(F)(F)F)cc23)C1", "IC50": "1000 to 10000 nM"}
{"molecule": "CCN(c1nc(OC[C@@]23CCCN2C[C@H](F)C3)nc2c(F)c(-c3ccc(F)c4sc(N)c(C#N)c34)c(C(F)(F)F)cc12)[C@H]1C[C@@H](C)N(C(=O)OC)C1 (atropisomer, axis not shown)", "IC50": "100 to 1000 nM"}
{"molecule": "C[C@@H]1[C@H](N(C)c2nc(OC[C@@]34CCCN3C[C@H](F)C4)nc3c(F)c(-c4ccc(F)c5sc(N)c(C#N)c45)c(Cl)cc23)CCN1C(=O)C1CC1", "IC50": "100 to 1000 nM"}
{"molecule": "CC(=O)N1C[C@@H]2OCCN(c3nc(OC[C@@]45CCCN4C[C@H](F)C5)nc4c(F)c(-c5ccc(F)c6sc(N)c(C#N)c56)c(C(F)(F)F)cc34)[C@@H]2C1", "IC50": "1000 to 10000 nM"}

Reference source: patent US20260042764A1
